Where do the numbers come from? From patent US20140322218A1.

- target-or-test-system: T1, huCDH19(44-249)::muCDH19(248-770), Flag-tagged, on 293T cells (human/mouse chimera)
- T1 construct: also called Hu EC1-2; C137896
- method-notes: FACS, transfected 293T
reported-metric: binding result

1) hu anti-<huCDH19> 2G6 (1-477)(R17G,D61E,D72E,K94N) VH::huIgG1z / 2G6 (1-234)(C42S,D110E) VL::huLLC-C1 (Ab ID 14039) (antibody, V domains shown, Engineered variant of 2G6) VH: QVQLVESGGGVVQPGGSLRLSCAASGFTFSSYGMHWVRQAPGKGLEWVAFIWYEGSNKYYAESVKDRFTISRDNSKNTLYLQMNSLRAEDTAVYYCARRAGIIGTIGYYYGMDVWGQGTTVTVSS VL: SYELTQPPSVSVSPGQTASITCSGDRLGEKYTSWYQQRPGQSPLLVIYQDTKRPSGIPERFSGSNSGNTATLTISGTQAMDEADYYCQAWESSTVVFGGGTKLTVLG :: binds
2) hu anti-<huCDH19> 4A9 VH::huIgG1z / 4A9 VL::huLLC-C1 (Ab ID 13589) (antibody, V domains shown, Recombinant fully human IgG1) VH: QVQLQESGPGLVKPSETLSLTCTVSGGSISGYYWSWIRQPPGKGLEWFAYFSYSGSTNYNPSLKSRVTLSVDTSKNQFSLKLSSVTAADTAVYYCARNWAFHFDFWGQGTLVTVSS VL: QSVLTQPPSVSGAPGQRVTISCTGSSSNIGTGYAVHWYQQFPGTAPKLLIYGNNNRPSGVPDRFSGSKSGTSASLAITGLQAEDEADYYCQSYDSRLSGWVFGGGTKLTVLG :: binds
